- Test system: 817829-284-R-J1-PDC multi-cell spheroid viability
- TEST: Anticancer human tumor 817829-284-R-J1-PDC patient-derived colon adenocarcinoma cell line growth inhibition [PI3K]
- CONDITION_SUMMARY: curve of compound
MEASURED_QUANTITY: IC50

Below, 3 molecules whose answers are already recorded.
1) CC(Cn1ccc(-c2ccc(C#N)c(Cl)c2)n1)NC(=O)c1cc(C(C)O)[nH]n1 (centres undefined); > 10 µM
2) CCN1CCN(Cc2ccc(Nc3ncc(F)c(-c4cc(F)c5nc(C)n(C(C)C)c5c4)n3)nc2)CC1; > 1 µM
3) CC1(C)CCC(Nc2ncc(C(F)(F)F)c(-c3c[nH]c4c(P(C)(C)=O)c(C#N)ccc34)n2)CN1 (centres undefined); < 0.0316 µM

Here is the next item to consider.
Ask | Given the entry C[C@@H](NC(=O)c1ncnc(N)c1Cl)c1ncc(C(=O)Nc2cc(C(F)(F)F)c(Cl)cn2)s1 , what IC50 was observed with 817829-284-R-J1-PDC multi-cell spheroid viability?
Reply | > 10 µM

* * *

- System: 817829-284-R-J1-PDC multi-cell spheroid viability
- TEST: Anticancer human tumor 817829-284-R-J1-PDC cell line growth inhibition [PI3K];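 also: spheroids exposed to agents for seven days before readout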;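 as to viability, T/C: percent of vehicle DMSO control viability which is 100%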
- CONDITION_SUMMARY: second compound 0.316 µM; first compound 0.1 µM; stronger effect = lower value
- Description: Combinatorial screen of targeted agents with the PI3K inhibitors inavolisib, alpelisib, duvelisib, and copanlisib in multi-cell type tumor spheroids A high-throughput screen of multi-cell type tumor spheroids was designed to identify active combinations of targeted small molecules and PI3K pathway inhibitors. […] Compounds. […] If the clinical Cmax for an agent had not been determined, the highest concentration tested was 10 microM. […]
MEASURED_QUANTITY: viability, T/C (%)
# value in %; strip the unit string

These recorded examples may help you get a feel for the data.
1) C=CC(=O)N1CCN(c2nc(=O)n(-c3c(C)ccnc3C(C)C)c3nc(-c4c(O)cccc4F)c(F)cc23)C(C)C1 (stereo not drawn) + CC(Nc1ccc2c(c1)OCCn1cc(N3C(=O)OCC3C(F)F)nc1-2)C(N)=O; 75.9
2) Cn1ncnc1[C@H]1c2n[nH]c(=O)c3cc(F)cc(c23)N[C@@H]1c1ccc(F)cc1 + Cc1nc(NC(=O)N2CCCC2C(N)=O)sc1-c1ccnc(C(C)(C)C(F)(F)F)c1; 50.2

Now consider a different molecule.
Ask | Return reported viability, T/C; argument: CC1(C)CCC(Nc2ncc(C(F)(F)F)c(-c3c[nH]c4c(P(C)(C)=O)c(C#N)ccc34)n2)CN1 (stereo not drawn) + CC(Nc1ccc2c(c1)OCCn1cc(N3C(=O)OCC3C(F)F)nc1-2)C(N)=O
Reply | 28.7

* * *

Recorded viability, T/C for the following compounds
- System: 817829-284-R-J1-PDC multi-cell spheroid viability
- TEST: Anticancer human tumor 817829-284-R-J1-PDC cell line growth inhibition [PI3K];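 also: spheroids exposed to agents for seven days before readout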;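 as to viability, T/C: percent of vehicle DMSO control viability which is 100%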
- CONDITION_SUMMARY: second compound 1 µM; first compound 3.16 µM; stronger effect = lower value
Reply numerically in %, unit not repeated.

Examples from the recorded data:
1. CNC(=O)c1ccc(N2C(=S)N(c3ccc(C#N)c(C(F)(F)F)c3)C(=O)C2(C)C)cc1F + Cc1nc(NC(=O)N2CCCC2C(N)=O)sc1-c1ccnc(C(C)(C)C(F)(F)F)c1; 63.3
2. CCCS(=O)(=O)Nc1ccc(F)c(C(=O)c2c[nH]c3ncc(-c4ccc(Cl)cc4)cc23)c1F + CC(Nc1ncnc2nc[nH]c12)c1cc2cccc(Cl)c2c(=O)n1-c1ccccc1; 68.3
3. CC(C)NCC(C(=O)N1CCN(c2ncnc3c2C(C)CC3O)CC1)c1ccc(Cl)cc1 (stereo unspecified) + COc1c(OCCCN2CCOCC2)ccc2c3n(c(=NC(=O)c4cnc(N)nc4)nc12)CCN3; 6.2
4. CCCS(=O)(=O)Nc1ccc(F)c(C(=O)c2c[nH]c3ncc(-c4ccc(Cl)cc4)cc23)c1F + COc1c(OCCCN2CCOCC2)ccc2c3n(c(=NC(=O)c4cnc(N)nc4)nc12)CCN3; 9.78
5. Cn1nccc1Nc1nccc(-c2ccn(C(CO)c3ccc(Cl)c(F)c3)c(=O)c2)n1 (stereo unspecified) + Cc1nc(NC(=O)N2CCCC2C(N)=O)sc1-c1ccnc(C(C)(C)C(F)(F)F)c1; 60.9

Ask | Checklist item: viability, T/C tested on 817829-284-R-J1-PDC multi-cell spheroid viability, entry C=CC(=O)N1CCN(c2nc(=O)n(-c3c(C)ccnc3C(C)C)c3nc(-c4c(O)cccc4F)c(F)cc23)C(C)C1 (stereo unspecified) + CC(Nc1ccc2c(c1)OCCn1cc(N3C(=O)OCC3C(F)F)nc1-2)C(N)=O , value?
Reply | 62.7

Ask | Now consider CCCS(=O)(=O)Nc1ccc(F)c(C(=O)c2c[nH]c3ncc(-c4ccc(Cl)cc4)cc23)c1F + CC(Nc1ccc2c(c1)OCCn1cc(N3C(=O)OCC3C(F)F)nc1-2)C(N)=O .
Reply | 50.1

Ask | Next entry: CC(Cn1ccc(-c2ccc(C#N)c(Cl)c2)n1)NC(=O)c1cc(C(C)O)[nH]n1 (stereo unspecified) + CC(Nc1ccc2c(c1)OCCn1cc(N3C(=O)OCC3C(F)F)nc1-2)C(N)=O
Reply | 60

Ask | Note, next up: CC1(C)CCC(CN2CCN(c3ccc(C(=O)NS(=O)(=O)c4ccc(NCC5CCOCC5)c([N+](=O)[O-])c4)c(Oc4cnc5[nH]ccc5c4)c3)CC2)=C(c2ccc(Cl)cc2)C1 + CC(Nc1ccc2c(c1)OCCn1cc(N3C(=O)OCC3C(F)F)nc1-2)C(N)=O
Reply | 49

Ask | Try this compound too: CNC(=O)c1ccc(N2C(=S)N(c3ccc(C#N)c(C(F)(F)F)c3)C(=O)C2(C)C)cc1F + COc1c(OCCCN2CCOCC2)ccc2c3n(c(=NC(=O)c4cnc(N)nc4)nc12)CCN3
Reply | 11.1

Ask | Now the same for Cn1ncc(Cl)c1-c1cc(C(=O)NC(CN)Cc2cccc(F)c2)sc1Cl (stereo unspecified) + COc1c(OCCCN2CCOCC2)ccc2c3n(c(=NC(=O)c4cnc(N)nc4)nc12)CCN3
Reply | 7.2
